Tested on: SF-539 CNS
methodDescription: NCI-60 one-dose screen, 48 h (100 = growth as untreated, 0 = no growth, -100 = all killed)
appliedConditions: 10 µM unless noted
About 83,000 compounds went through this panel and 20% of them were active in at least one assay; those are over-represented in the sample as a whole.
Doc: threshold 80% (exclusive). Items with growth beneath it return True; others return False.

These recorded examples may help you get a feel for the data.
C=C(C)[C@@H]1CC[C@]2(C(=O)NCC(=O)OC)CC[C@]3(C)[C@H](CC[C@@H]4[C@@]5(C)Cc6c([nH]c7ccccc67)C(C)(C)[C@@H]5CC[C@]43C)[C@@H]12
False
O=C(O)CNC(=O)CN1C(=O)c2ccccc2C1=O
False
O=C(OC(OC(=O)c1cc(Cl)cc(Cl)c1)c1cccc2ccccc12)c1ccccc1 (stereo not drawn)
False
CC(C)(C)OC(=O)N1C/C(=C\c2ccoc2)C(=O)/C(=C/c2ccoc2)C1
False
NC(=O)c1cccc(-c2ccccc2N2CCCCC2)c1
False

Data request: Dear colleague, could you confirm whether growth of `Cn1c(COC(=O)NCCc2ccccn2)nc2c(N3CCOCC3)nc(Cl)nc21` falls below 80%? Thanks.
Data returned: True

Data request: For `O=C(O)CCCCCCCCCCCCCCC(=O)O` , is the recorded growth below the cut-off of 80%?
Data returned: False

Data request: Lab log: compare recorded growth with 80%; is it strictly lower for `CN1CCN(CC#CCNC(=O)[C@]23CCC(C)(C)C[C@H]2C2=CC[C@@H]4[C@@]5(C)Cc6c([nH]c7ccccc67)C(C)(C)[C@@H]5CC[C@@]4(C)[C@]2(C)CC3)CC1` ?
Data returned: False

Data request: Threshold test, growth < 80%: `COc1cc(/C=C/C(=O)c2c(C)oc3nc[nH]c(=O)c23)ccc1O`
Data returned: False

Data request: Would you kindly verify if growth of CCN(CC)CCCC(C)Nc1cc(-c2cccc(OC(F)(F)F)c2)nc2ccc(N3CCCC3)cc12 (stereo not drawn) is strictly less than 80%?
Data returned: True

Data request: Find out if reported growth for `C=C(C)[C@@H]1CC[C@]2(CO)CC[C@]3(C)[C@H](CC[C@@H]4[C@@]5(C)CCCNC(C)(C)[C@@H]5CC[C@]43C)[C@@H]12` is less than 80%
Data returned: True

###

Form field: growth (one value per entry).
Test system: SF-268 CNS
methodDescription: NCI-60 one-dose screen, 48 h (100 = growth as untreated, 0 = no growth, -100 = all killed)
appliedConditions: 10 µM unless noted
Compounds without any hit were thinned out: in the full panel of roughly 83,000, 20% have a hit.
Note: unit % is implicit; provide only the numeric part.

C#CCNC(=O)[C@H](Cc1ccccc1)NC(=O)[C@]12CC[C@@H](C(=C)C)[C@@H]1[C@H]1CC[C@@H]3[C@@]4(C)Cc5c([nH]c6ccccc56)C(C)(C)[C@@H]4CC[C@@]3(C)[C@]1(C)CC2
92.6
CN(Cc1ccccc1)c1nc(Cl)c(C2CC(c3ccc(Cl)cc3)=Cc3[nH][nH]c(=O)c32)s1 (stereo not given)
92.1
COc1ccccc1/C=C1\Oc2cc(OCCCN3CCCC3)ccc2C1=O
90.3
COc1ccc(-c2nc(SC)nc(N3CCOCC3)c2C#N)cc1
92.4

From here, focus on the item given below.
Data request: Which value of growth has been reported for CCC1(CC)NC(=O)c2c(c3ccc(Cl)c(Cl)c3n2C)C1C#N (stereo not given) in the records?
Data returned: 90.3

###

Tested on: OVCAR-4 ovarian
methodDescription: NCI-60 one-dose screen, 48 h (100 = growth as untreated, 0 = no growth, -100 = all killed)
appliedConditions: 10 µM unless noted
About 83,000 compounds went through this panel and 20% of them were active in at least one assay; those are over-represented in the sample as a whole.
This listing pairs molecules with measured growth.
Please respond with the number in % and leave the unit unwritten.

Solved cases below.
COc1ccc(C(=O)c2cc3c(N)c(C(=O)Nc4cccc(Cl)c4)sc3nc2C)cc1
49.5
C=C(C)[C@@H]1CC[C@]2(C=O)CC[C@]3(C)[C@H](CC[C@@H]4[C@@]5(C)CCCNC(C)(C)[C@@H]5CC[C@]43C)[C@@H]12
82.3
C[C@H]1[C@H](C)CC[C@]2(CO)CC[C@]3(C)C(=CC[C@@H]4[C@@]5(C)CCCNC(C)(C)[C@@H]5CC[C@]43C)[C@H]12
18.5
COc1cccc(CCC(=O)c2cc3c(N)c(C(=O)Nc4ccccc4)sc3nc2C)c1
53.9
O=C1Nc2c(ccc(Cl)c2Cl)/C1=C/c1ccc(O)cc1
72.9
COC(=O)Nc1ccc(NC(=O)OC)cc1
112
CC(Oc1ccc(C(=O)NS(=O)(=O)C(C)(C)C)cc1C(F)(F)F)c1ccc(Oc2ccccc2)cn1 (stereo unspecified)
93.1
CC1(c2ccccc2)NC(=O)N(CC(=O)Nc2cccc(I)c2)C1=O (stereo unspecified)
90.3
Cc1cc(Nc2cccc(C(F)(F)F)c2)n2c(nc3ccccc32)c1C#N
34.6
COc1ccc(-c2nc(SCC(C)C)nc(N/N=C(/C)c3ccc(OC)c(OC)c3)c2C#N)cc1
86.3

Data request: Identify the measured growth of `CCCCCCN(C)Cc1ccc(OCCOc2ccc(CN(C)CCCCCC)cc2)cc1` for OVCAR-4 ovarian.
Data returned: 31.4

Data request: Could you share what growth was measured for `Cc1cccc(Oc2ccc(Nc3ncnc4ccc(NC(=O)CN(C)C)cc34)cc2Cl)c1` , tested on OVCAR-4 ovarian?
Data returned: 45.2

Data request: Report growth for `COc1cc(Nc2cc(O)c3c(=O)cc(-c4ccccc4)oc3c2)cc(OC)c1` tested on OVCAR-4 ovarian.
Data returned: 59.3

Data request: What value of growth on OVCAR-4 ovarian does `C=CCn1c(SCC(=O)Nc2ccc(C(=O)/C=C/c3cc(OC)c(OC)c(OC)c3)cc2)nnc1-c1cc(OC)c(OC)c(OC)c1` have?
Data returned: 55.2

Data request: Lab note: need growth for `COc1cc2nc(-c3ccc(C(F)(F)F)cc3)cc(OCCCN3CCCCC3)c2cc1OC` on OVCAR-4 ovarian, anyone have it?
Data returned: 54.7

Data request: Given the entry `COc1ccc(-c2c[nH]c(C(=O)O)c2-c2cc(OC)c3c(c2OC)OCO3)cc1` , what growth was observed with OVCAR-4 ovarian?
Data returned: 100

Data request: Record lookup: for OVCAR-4 ovarian, what growth belongs to COc1ccc(C(O)c2cc3c(N)c(C(=O)Nc4ccc(Br)cc4)sc3nc2C)cc1 (stereo unspecified) ?
Data returned: 42.9

Data request: Look up growth with OVCAR-4 ovarian for this molecule: `COc1ccc(C(=O)c2cc3c(N)c(C(=O)Nc4cccc5ccccc45)sc3nc2C)cc1`
Data returned: 37.2

###

System: SK-OV-3 ovarian
methodDescription: NCI-60 one-dose screen, 48 h (100 = growth as untreated, 0 = no growth, -100 = all killed)
appliedConditions: 10 µM unless noted
Compounds without any hit were thinned out: in the full panel of roughly 83,000, 20% have a hit.
Some molecules, each annotated with its measured growth.
# output: bare number, implied unit %

CN1C(=O)N(C)C2NC(N/N=C/c3ccccc3)=NC21 (centres undefined)
115
COc1ccc(-c2nc(SC)nc(N3CCOCC3)c2C#N)cc1
89.4
COC(=O)Nc1nc2ccc(C(=O)c3cccc(I)c3)cc2[nH]1
30.3

Here's the next entry for you.
Data request: # lookup: growth of `COc1cc2nc(-c3ccc(-c4nn[nH]n4)cc3)[nH]c(=O)c2cc1OC`
Data returned: 108

###

System: HCC-2998 colon
methodDescription: NCI-60 one-dose screen, 48 h
appliedConditions: 10 µM unless noted
The panel holds about 83,000 compounds, 20% with a hit somewhere; the sample as a whole holds those more often. Active and inactive are the calls of the source. The calls were made as follows: active = growth percent below 10; inactive = the rest.
Outcome (select one): active, inactive

Solved cases below.
O=C(Nc1ccc2cc3ccc(NC(=O)N4CCCCCC4)cc3nc2c1)N1CCCCCC1
active
Fc1ccc(-n2cc(COc3ncnc4sc5c(c34)CCCC5)nn2)cc1Cl
inactive
Nc1c(C(=O)Nc2ccc(Cl)cc2)cc(-c2nc3ccccc3s2)c(=O)n1NS(=O)(=O)c1ccc(Cl)cc1
inactive
NC(=S)N/N=C(/c1ccccc1)c1ccccc1N
inactive

Data request: # outcome recorded in this test, key = `Cc1c2c(cc[n+]1Cc1ccccc1)c1ccc(OCC3CCCCC3)cc1n2CC1CCCCC1`
Data returned: active

Data request: For `CC(=O)c1cccc(NS(=O)(=O)c2cccc(C(=O)Nc3ccc(Br)cc3)c2)c1` , what call appears in the results of this test?
Data returned: inactive

Data request: Could you check what this test reported for `CN(C)c1ccc(-c2c(C#N)c(N)n3nc(N)c(C#N)c3c2C#N)cc1` ?
Data returned: inactive

Data request: Could you check what this test reported for `O=C(CCN1CCCC1)Nc1ccc2c(Nc3ccccc3)c3ccccc3nc2c1` ?
Data returned: active
